Listing of entries alongside the reported hERG current change (%, negative = inhibition) at 10uM.
- System: human ether-à-go-go-related gene (hERG) potassium channel (human, UniProt Q12809);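 further: peak tail current of the secondary pulse compared with the same well before compound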
- Sequence (Q12809 whole entry, looked up): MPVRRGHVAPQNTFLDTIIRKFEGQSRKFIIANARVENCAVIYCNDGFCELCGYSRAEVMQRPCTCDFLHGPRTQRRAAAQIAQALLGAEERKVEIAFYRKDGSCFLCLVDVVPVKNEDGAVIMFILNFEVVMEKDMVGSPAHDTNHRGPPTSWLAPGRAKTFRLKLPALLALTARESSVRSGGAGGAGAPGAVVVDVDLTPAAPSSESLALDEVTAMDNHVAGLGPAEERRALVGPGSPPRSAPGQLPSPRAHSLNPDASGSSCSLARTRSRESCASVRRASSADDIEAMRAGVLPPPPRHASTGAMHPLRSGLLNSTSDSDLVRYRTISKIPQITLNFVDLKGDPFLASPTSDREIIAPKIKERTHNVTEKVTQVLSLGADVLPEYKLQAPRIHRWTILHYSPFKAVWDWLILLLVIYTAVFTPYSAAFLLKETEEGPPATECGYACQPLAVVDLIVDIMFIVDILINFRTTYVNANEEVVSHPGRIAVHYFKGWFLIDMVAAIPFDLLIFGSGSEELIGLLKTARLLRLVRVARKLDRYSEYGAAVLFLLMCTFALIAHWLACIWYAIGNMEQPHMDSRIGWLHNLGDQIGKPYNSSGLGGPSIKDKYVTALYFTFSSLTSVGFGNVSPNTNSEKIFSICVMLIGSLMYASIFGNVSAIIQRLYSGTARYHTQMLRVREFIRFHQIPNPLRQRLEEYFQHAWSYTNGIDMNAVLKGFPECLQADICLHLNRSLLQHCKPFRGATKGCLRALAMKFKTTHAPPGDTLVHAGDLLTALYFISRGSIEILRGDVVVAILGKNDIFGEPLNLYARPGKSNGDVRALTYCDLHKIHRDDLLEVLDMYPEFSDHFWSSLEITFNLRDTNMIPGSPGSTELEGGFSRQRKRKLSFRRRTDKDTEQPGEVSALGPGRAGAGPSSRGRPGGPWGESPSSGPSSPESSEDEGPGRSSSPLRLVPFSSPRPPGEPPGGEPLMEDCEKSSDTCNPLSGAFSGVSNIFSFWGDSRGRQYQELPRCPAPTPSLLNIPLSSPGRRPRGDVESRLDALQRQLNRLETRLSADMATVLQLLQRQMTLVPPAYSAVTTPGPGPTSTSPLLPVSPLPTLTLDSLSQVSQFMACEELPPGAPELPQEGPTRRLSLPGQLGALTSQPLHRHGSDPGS
- Assay Comment: primary screen, population patch clamp on CHO cells stably expressing hERG; higher = less effect of the substance
About 14,000 (4.5%) of roughly 310,000 compounds showed an effect of 50% or more. The effect is printed as a negative number. Shown is part of a subset that was picked to be rich in strong results.
Value expressed in %; do not type the unit.

Use these answered entries as a reference point.
| Compound | System | Unit Info | Data Value |
| --- | --- | --- | --- |
| CCOC(=O)c1cccc(NC(=O)/C=C/c2cccc([N+](=O)[O-])c2)c1 | human ether-à-go-go-related gene (hERG) potassium channel (human, UniProt Q12809) | % | -15.4 |
| O=C(C1CCN(S(=O)(=O)c2ccc(-n3cnnn3)cc2)CC1)N1CCN(c2ccccc2)CC1 | human ether-à-go-go-related gene (hERG) potassium channel (human, UniProt Q12809) | % | -35.7 |
| CCCOC(=O)c1c(NC(=O)C2C3C=CC(C3)C2C(=O)O)sc2c1CCC(C)C2 (centres unmarked) | human ether-à-go-go-related gene (hERG) potassium channel (human, UniProt Q12809) | % | -59.3 |

Consider the additional compound presented here.
Task item: Fill in: hERG current change (%, negative = inhibition) at 10uM on human ether-à-go-go-related gene (hERG) potassium channel (human, UniProt Q12809), entry `COc1ccccc1-n1cnnc1SCC(=O)c1ccc[nH]1`
Reply: -0.89

----------
- System: human ether-à-go-go-related gene (hERG) potassium channel (human);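 further: peak tail current of the secondary pulse compared with the same well before compound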
- Assay Comment: primary screen, population patch clamp on CHO cells stably expressing hERG; higher = less effect of the substance
Out of some 310,000 compounds screened, about 14,000 (4.5%) showed an effect of 50% or more. Effects have a minus sign here. The full list was thinned out, with strong results kept by preference.
Binary call on hERG current change (%, negative = inhibition) at 10uM: label 1 from -20% upward, label 0 beneath that.

Some entries whose results are on file:
| Compound | Assigned Category |
| --- | --- |
| COc1ccc(-n2ncc3c2CC(C)(C)CC3NC(=O)CN2CCOC2=O)cc1 (stereo not shown) | label 0 |
| COC(=O)c1cc(NC(=O)c2cccc(F)c2)cc(C(=O)OC)c1 | label 1 |
| COc1ccc(-n2ncc3c2CC(C)(C)CC3NC(=O)c2ocnc2C)cc1 (stereo not shown) | label 0 |
| O=C(NC1CC1)C1CCN(Cc2cnn(-c3ccccc3)c2-n2cccc2)CC1 | label 0 |
| COc1ccc(-n2ncc3c2CC(C)(C)CC3NC(=O)C2=CC(=O)CC(C)(C)O2)cc1 (stereo not shown) | label 0 |
| CC(C)c1nc(-c2ccc([N+](=O)[O-])cc2)cs1 | label 1 |
| COCc1ccc(C(=O)NC2CC(C)(C)Cc3c2cnn3-c2ccc(OC)cc2)o1 (stereo not shown) | label 0 |
| COc1cc(CNCCO)cc(Br)c1OCc1cccs1.Cl | label 1 |

Task item: For this compound, is measured hERG current change (%, negative = inhibition) at 10uM -20% or higher? Cn1nccc1C(=O)NC1CC(C)(C)Cc2c1cnn2-c1ccc(F)cc1 (stereo not shown)
Reply: label 0

Task item: Record `CCOc1ccc(S(=O)(=O)N2CCN(C(=O)c3ccc(-n4cncn4)c([N+](=O)[O-])c3)CC2)cc1` ; criterion: hERG current change (%, negative = inhibition) at 10uM no lower than -20%. Met?
Reply: label 0

Task item: # bool: hERG current change (%, negative = inhibition) at 10uM of `CCCCC(=O)NC(=S)Nc1ccc(NC(=O)C(C)C)c(OC)c1` >= -20%
Reply: label 1

Task item: Reported hERG current change (%, negative = inhibition) at 10uM reaches at least -20% for `O=C(CSc1nc2c(c(=O)n1-c1ccc(F)cc1)SCC2)Nc1ccc2c(c1)OCO2` ?
Reply: label 1

Task item: Tell me whether hERG current change (%, negative = inhibition) at 10uM is at least -20% here: `O=C(c1ccc(-n2cncn2)c([N+](=O)[O-])c1)N1CCN(S(=O)(=O)c2ccccc2Br)CC1`
Reply: label 0

Task item: Determine whether this compound has hERG current change (%, negative = inhibition) at 10uM no lower than -20%: Cc1nonc1CC(=O)NC1CC(C)(C)Cc2c1cnn2-c1ccc(F)cc1 (stereo not shown)
Reply: label 1

Task item: Test whether the compound COc1ccc(C2CC(c3ccccc3)Nc3nc(NS(C)(=O)=O)nn32)cc1 (stereo not shown) records hERG current change (%, negative = inhibition) at 10uM of -20% or higher.
Reply: label 1

Task item: Please check the record `COc1cc(C(=O)OCC(=O)N2CCC(Cc3ccccc3)CC2)cc(OC)c1OC` and state if its hERG current change (%, negative = inhibition) at 10uM is at or above -20%.
Reply: label 1

Task item: In plain terms: is recorded hERG current change (%, negative = inhibition) at 10uM at least -20% for O=C(NCC1CCCO1)C1CCCN(Cc2cnn(-c3ccccc3)c2-n2cccc2)C1 (stereo not shown) ?
Reply: label 1

Task item: Threshold query (hERG current change (%, negative = inhibition) at 10uM >= -20%) on O=C(CCCC(=O)OCC1CCCO1)OCC1CCCO1 (stereo not shown)
Reply: label 1

Task item: Does the reported hERG current change (%, negative = inhibition) at 10uM for Cc1ccc(CNC(=O)C2CCCN(Cc3cnn(-c4ccccc4)c3-n3cccc3)C2)cc1 (stereo not shown) fall at or above the -20% mark?
Reply: label 0

----------
- System: human ether-à-go-go-related gene (hERG) potassium channel (human, UniProt Q12809);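 further: peak tail current of the secondary pulse compared with the same well before compound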
- Assay Comment: primary screen, population patch clamp on CHO cells stably expressing hERG; higher = less effect of the substance
Hit rate of the full screen: of about 310,000 compounds, about 14,000 (4.5%) showed an effect of 50% or more. The effect is printed as a negative number. The entries come from a sample that favours strong results as a whole.
# cutoff -40% applies to hERG current change (%, negative = inhibition) at 10uM; >= gives satisfied, < gives not satisfied

Here's what some known entries look like.
| Mol Smiles | Assigned Category |
| --- | --- |
| COC(=O)c1ccc(OCCOc2ccc(C(=O)OC)cc2)cc1 | satisfied |
| Cl.c1ccc(OCCN2C3=NCCN3c3ccccc32)cc1 | not satisfied |
| CN(C)S(=O)(=O)c1ccc(N2CCCC2)c(C(=O)NNC(=O)c2ccc(F)cc2)c1 | satisfied |
| Br.COC(=O)CN1C2=NCCCN2c2ccccc21 | satisfied |
| O=C(CN1CCOCC1)Nc1cc(C(F)(F)F)ccc1Cl | satisfied |

Task item: For this molecule, is measured hERG current change (%, negative = inhibition) at 10uM -40% or higher? `O=C(CN1CCCC1)Nc1cc(C(F)(F)F)ccc1Cl`
Reply: satisfied

Task item: # check: hERG current change (%, negative = inhibition) at 10uM of `CC(C)NC(=O)C1CCN(C2CCN(C(=O)c3cc4c(s3)CCCCC4)CC2)CC1` is greater than or equal to -40%
Reply: not satisfied

Task item: Could you tell me if the measured hERG current change (%, negative = inhibition) at 10uM of `O=C(CN1CCN(C(=O)c2ccco2)CC1)Nc1cc(C(F)(F)F)ccc1Cl` reaches -40% or more?
Reply: not satisfied

Task item: Could you tell me if the measured hERG current change (%, negative = inhibition) at 10uM of `CCOC(=O)N1CCN(C(=O)CSc2nnc(COc3ccccc3)o2)CC1` reaches -40% or more?
Reply: satisfied

----------
- System: human ether-à-go-go-related gene (hERG) potassium channel (human, UniProt Q12809);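 further: peak tail current of the secondary pulse compared with the same well before compound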
- Assay Comment: primary screen, population patch clamp on CHO cells stably expressing hERG; higher = less effect of the substance
Screen size: about 310,000 compounds; about 14,000 (4.5%) showed an effect of 50% or more. The effect is printed as a negative number. The sample as a whole holds a higher share of strong results than the screen did.
Assay Metric: hERG current change (%, negative = inhibition) at 10uM (%)
Respond with the bare value in %.

Please review the entries below; each comes with its answer.
| Compound | Data Value |
| --- | --- |
| Nc1cnc(Nc2ccc(Br)cc2)nc1N.O=S(=O)(O)O | -8.72 |
| CCOc1cc(/C=N/NC(=O)Cc2ccc(C(F)(F)F)cc2[N+](=O)[O-])c(Br)cc1OC | 8.3 |
| CC(=O)NC(CC(=O)O)c1ccc(F)cc1 (centres unmarked) | 0.22 |
| Cc1ccc(NC(=O)CN2CCN(Cc3ccccc3)CC2)cc1Cl | -46 |
| CCCCNC(=O)CCC(=O)N1CCN(C(c2ccccc2)c2ccccc2)CC1.Cl | -7.34 |
| COc1ccc(CN2CC(C(=O)NCCCOC(C)C)CC2=O)cc1 (centres unmarked) | 0.406 |
| CCOc1ccc(Oc2ccc(S(=O)(=O)N3CCOCC3)cc2NC(=O)C2=COCCO2)cc1 | -41.9 |
| O=C(CCCC(=O)N(c1ccc2c(c1)OCCO2)C(C(=O)NC1CCCCC1)c1ccc(F)cc1)Nc1ccccn1 (centres unmarked) | 10 |
| COc1ccccc1-n1nnnc1SCC(=O)NCC1(N2CCOCC2)CCCCC1 | -39.8 |
| Cc1ccc(S(=O)(=O)N(C)C)cc1NC(=O)CN1CCN(Cc2ccccc2)CC1.Cl | -24.8 |

Task item: Fill in hERG current change (%, negative = inhibition) at 10uM for record O=C(NC(CC(=O)N1CCN(c2ccccc2)CC1)c1ccccc1)c1ccccc1Cl (centres unmarked)
Reply: -46.8

Task item: Please give the documented hERG current change (%, negative = inhibition) at 10uM of `O=C(NNC(=O)C1CCC1)c1cccc(Cl)c1`
Reply: -5.52

Task item: Note hERG current change (%, negative = inhibition) at 10uM for the compound shown: `CC(=O)N1CCN(CC(=O)Nc2ccc(C)c(F)c2)CC1.Cl`
Reply: 0.314

Task item: Fill in reported hERG current change (%, negative = inhibition) at 10uM for this entry: `CCN(CC)S(=O)(=O)c1ccc(N2CCOCC2)c(NC(=O)CNCCc2ccccc2)c1.O=C(O)C(=O)O`
Reply: -63.8
